Each item that follows carries a reported GI50.
test system: HT-29; assay: NCI tumour cell line growth inhibition, 48 h
Active and inactive are the calls of the source. No stated cut-off is given here; in the data, active = GI50 up to about 1.1 µM and inactive = higher.
property.measured: GI50

compound=Cc1ccc(S(=O)(=O)Oc2nc3nc4ccccc4nc3nc2OS(=O)(=O)c2ccc(C)cc2)cc1 result="> 100 µM (inactive)"
compound="CC1=C2C3OC(=O)C(C)C3CCC2(C)C=C/C1=N\\c1ccccc1 (centres undefined)" result="> 100 µM (inactive)"
compound=Nc1nc2c(C(=O)NCc3cccs3)nnn2c2cccc(Cl)c12 result="> 100 µM (inactive)"
compound=CN1C[C@@H]2CC(=O)CC[C@@H]2C[C@H]1C#N result="> 100 µM (inactive)"
compound=O=C(CCN1CCOCC1)Nc1ccc(F)cc1F result="> 100 µM (inactive)"
compound="COC(=O)[C@@]12C3=NO[C@]1(C(=O)OC)C(O[Si](C)(C)C(C)(C)C)[C@@H](OC(C)=O)[C@@H](OC(C)=O)[C@@H]2[C@@H](OCc1ccccc1)CC3 (some centres undefined)" result="> 72.3 µM (inactive)"
compound=Clc1ccc(-c2ccc(-c3nn4c(CNc5ccccc5)nnc4s3)o2)c(Cl)c1 result="40.1 µM (inactive)"
compound=CCN(CC)c1c(C(=O)/C=C/c2ccccc2)c(-c2ccccc2)nn(C)c1=O result="5.48 µM (inactive)"
compound="COC(=O)[C@@]1(NC(=O)C(CC(=O)OC(C)(C)C)NC(=O)OC(C)(C)C)C[C@H]1C (some centres undefined)" result="> 100 µM (inactive)"

* * *

Each item that follows carries a reported GI50.
system: NCI/ADR-RES; test: NCI tumour cell line growth inhibition, 48 h
Calls of active or inactive are those of the source. No stated cut-off is given here; in the data, active = GI50 up to about 1.1 µM and inactive = higher.
property.measured: GI50

compound=CC(C)C(=O)Oc1cc2c(=O)oc3c(OC(=O)C(C)C)c(OC(=O)C(C)C)cc4c(=O)oc(c1OC(=O)C(C)C)c2c34 tested_system=NCI/ADR-RES property_measured=GI50 result="> 100 µM (inactive)"
compound=ClCc1ccc2ccc3ccc(CCl)nc3c2n1 tested_system=NCI/ADR-RES property_measured=GI50 result="1.71 µM (inactive)"
compound="OCC12C3C4C5C3C1C5C42 (stereo not given)" tested_system=NCI/ADR-RES property_measured=GI50 result="> 100 µM (inactive)"
compound=CN(C)c1ccc2nc3c(C(=O)O)cc(O)c(O)c3[o+]c2c1 tested_system=NCI/ADR-RES property_measured=GI50 result="28.7 µM (inactive)"
compound=CCn1c(=O)c2cn[nH]c2n(C)c1=O tested_system=NCI/ADR-RES property_measured=GI50 result="> 100 µM (inactive)"
compound=COc1ccc2c(c1)/C(=C\c1c(Cl)nc3sc(C)cn13)C(=O)N2 tested_system=NCI/ADR-RES property_measured=GI50 result="3.56 µM (inactive)"
compound=O=c1oc2ccccc2cc1/C=N/N1C(=S)N(c2ccccc2)C(=N\c2ccccc2)/C1=N/c1ccccc1 tested_system=NCI/ADR-RES property_measured=GI50 result="> 100 µM (inactive)"
compound=CCC(=O)O[C@H]1CC[C@H]2[C@@H]3CCC4=C/C(=N/OC(=O)c5cccc6cc7ccccc7nc56)CC[C@]4(C)[C@H]3CC[C@]12C tested_system=NCI/ADR-RES property_measured=GI50 result="60.4 µM (inactive)"
compound="COC1CC(OC(=O)c2ccccc2)C(OC(=O)c2ccccc2)C(C)O1 (stereo not given)" tested_system=NCI/ADR-RES property_measured=GI50 result="> 100 µM (inactive)"
compound="CN1CCC23c4c5ccc(O)c4OC2c2[nH]c4ccccc4c2CC3(O)C1C5 (stereo not given)" tested_system=NCI/ADR-RES property_measured=GI50 result="> 100 µM (inactive)"
